Where do the numbers come from? From paper PMC6044923.

# target.under.test: amyloid-β (Aβ(1–42)) (Homo sapiens, UniProt P05067)
# Sequence (P05067 672-713): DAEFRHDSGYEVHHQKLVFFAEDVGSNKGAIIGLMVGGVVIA
# protocol.description: SPR aggregation assay
pIC50: −log10 of the molar value.
measured.metric: pIC50

>>> endpoint_result("C[n+]1ccc(-c2c3nc(c(-c4cc[n+](C)cc4)c4ccc([nH]4)c(-c4cc[n+](C)cc4)c4nc(c(-c5cc[n+](C)cc5)c5ccc2[nH]5)C=C4)C=C3)cc1")
6.37
